From: patent US20260234276A1

# target under test: T1, biotinylated CCR8 peptide (human, N-terminal biotin)
# T1 construct: first 34 residues of human CCR8 plus a C-terminal K; also called biotinylated target peptide
# test name: ELISA, soluble Fab on biotinylated CCR8 peptide captured on streptavidin
Consider the following binders and their measured Optical Density readings.
experimental endpoint: Optical Density

3-60 (Fab, V domains shown, soluble Fab from phage display library huFabL-4, Flag tag) VH: QVQLVQSGGGVVQPGRSLRLSCAASGFTFSSYAMHWVRQAPGKGLEWVAVISYDGSNKYYADSVKGRFTISRDNAKNSLYLQMNSLRAEDTAVYYCAREQAARPTLGAFDIWGKGTTVTVSS VL: DVVMTQSPLSLPVTPGEPASISCRSSQSLLHSNGNNYLAWYLQKPGQSPQLLMYLGSNRASGVPDRFSGSGSGTDFTLKISRVEAEDVGVYYCMQGIHLPLTFGGGTKVEIKR : 3.66 OD450
3-59 (Fab, V domains shown, soluble Fab from phage display library huFabL-4, Flag tag) VH: GVQLVQSGGGLVQPGGSLRLSCAASGFTFSSYSMNWVRQAPGKGLEWVAVISYDESNKYYADSVKGRFTISRDNSKNTLYLQMNSLRAEDTAVYYCAPGGSYHDYWGKGTLVTVSS VL: EIVLTQSPLSLPVTLGQPASISCRSSQSLAHSNGNTYLNWFQQRPGQSPRRLIYKVSNRDSGVPDRFSGSGSGTDFTLKISRVEADDVGVYYCMQGSHWPPTFGQGTKVEIKR : 1.4 OD450
3-71 (Fab, V domains shown, soluble Fab from phage display library huFabL-4, Flag tag) VH: QVQLQESGGGLVKPGRSLRLSCTASGFTFSSYAMSWVRQAPGKGLEWVSVNSGSGGTTYYADSVKGRFTISRDNAKNTLYLQMNSLRAEDTAVYYCARVSRYYDILTGYVYAFDIWGKGTLVTVSS VL: QSVVTQPPSVSAAPGQKVSISCSGSSSNIGKNYVSWYQQLPGTAPKLLIYDNNKRPSGIPDRFSGSKSGTSATLGITGLQAEDEADYYCQSYDRSLGVVFGGGTKLTVLG : 2.4 OD450
